Attribution: ChEMBL document CHEMBL1909519

Test system: Enterococcus faecalis
Assay: Antibacterial activity against Enterococcus faecalis after 24 hrs by agar disk diffusion assay
Type: functional
Please go through the items and note down their MIC.
Answers are plain numbers, in µg/mL.

given.smiles	MIC, µg/mL
O=C(O)c1cn(C2CC2)c2cc(N3CCNCC3)c(F)cc2c1=O	12.5
Cc1ccc2[nH]c3c(c2c1)CCc1c-3nc(N)c(C#N)c1-c1ccc(Br)cc1	25

Provide the reported MIC of each entry below, same order.
1. Cc1ccc2[nH]c3c(c2c1)CCc1c-3nc(N)c(C#N)c1-c1ccccc1
2. CCOC(=O)c1c(N)nc2c(c1-c1cc3ccccc3nc1Cl)CCc1c-2[nH]c2ccc(C)cc12

result:
100
25

====

Test system: HCT-15
Assay: Cytotoxicity against human HCT15 cells after 48 hrs by SRB assay
Assay type: functional, cell-based
Details: HCT-15, 48 h
Please go through the items and note down their IC50.
Answers are plain numbers, in µg/mL.

The cases that follow already have their IC50 on record.
given.smiles	measurement.unit	experimental.result
Cc1ccc2[nH]c3c(c2c1)CCc1c-3nc(N)c(C#N)c1-c1ccc(N(C)C)cc1	µg/mL	43.5
CCOC(=O)c1c(N)nc2c(c1-c1cccnc1)CCc1c-2[nH]c2ccc(C)cc12	µg/mL	33.8
Cc1ccc2[nH]c3c(c2c1)CCc1c-3nc(N)c(C#N)c1-c1ccccc1	µg/mL	44.9

Provide the reported IC50 of each entry below, same order.
1. Cc1ccc2[nH]c3c(c2c1)CCc1c-3nc(N)c(C#N)c1-c1cc2ccccc2nc1Cl
2. Cc1ccc2[nH]c3c(c2c1)CCc1c-3nc(N)c(C#N)c1-c1ccc(Br)cc1
3. CCOC(=O)c1c(N)nc2c(c1-c1cccs1)CCc1c-2[nH]c2ccc(C)cc12
4. Cc1ccc2[nH]c3c(c2c1)CCc1c-3nc(N)c(C#N)c1-c1cccnc1
5. Cc1ccc2[nH]c3c(c2c1)CCc1c-3nc(N)c(C#N)c1-c1cccs1

result:
4.43
11
22.5
47.6
3.45

====

Please go through the items and note down their MIC.
Tested on: Enterococcus faecalis
Experiment: Antibacterial activity against Enterococcus faecalis after 24 hrs by agar disk diffusion assay
Type: functional
Answers are plain numbers, in µg/mL.

Provide the reported MIC of each entry below, same order.
1. Cc1ccc2[nH]c3c(c2c1)CCc1c-3nc(N)c(C#N)c1-c1cc2ccccc2nc1Cl
2. CCOC(=O)c1c(N)nc2c(c1-c1cccs1)CCc1c-2[nH]c2ccc(C)cc12
3. CCOC(=O)c1c(N)nc2c(c1-c1ccc(Br)cc1)CCc1c-2[nH]c2ccc(C)cc12
4. Cc1ccc2[nH]c3c(c2c1)CCc1c-3nc(N)c(C#N)c1-c1cccs1
5. CCOC(=O)c1c(N)nc2c(c1-c1ccc(N(C)C)cc1)CCc1c-2[nH]c2ccc(C)cc12
6. Cc1ccc2[nH]c3c(c2c1)CCc1c-3nc(N)c(C#N)c1-c1ccc(N(C)C)cc1
7. Cc1ccc2[nH]c3c(c2c1)CCc1c-3nc(N)c(C#N)c1-c1cccnc1
8. CCOC(=O)c1c(N)nc2c(c1-c1cccnc1)CCc1c-2[nH]c2ccc(C)cc12

result:
1. 25
2. 25
3. 25
4. 25
5. 50
6. 50
7. 50
8. 50

query: Suppose we examine the molecule CCOC(=O)c1c(N)nc2c(c1-c1ccccc1)CCc1c-2[nH]c2ccc(C)cc12 ; what MIC value has been reported?
result: 100

====

Please go through the items and note down their MIC.
Test system: Staphylococcus aureus
Assay: Antibacterial activity against Staphylococcus aureus after 24 hrs by agar disk diffusion assay
Assay type: functional
Numbers only, in µg/mL.

The cases that follow already have their MIC on record.
given.smiles	test.system	measurement.unit	MIC
CCOC(=O)c1c(N)nc2c(c1-c1cccnc1)CCc1c-2[nH]c2ccc(C)cc12	Staphylococcus aureus	µg/mL	50
O=C(O)c1cn(C2CC2)c2cc(N3CCNCC3)c(F)cc2c1=O	Staphylococcus aureus	µg/mL	12.5
Cc1ccc2[nH]c3c(c2c1)CCc1c-3nc(N)c(C#N)c1-c1ccc(Br)cc1	Staphylococcus aureus	µg/mL	25

query: What reported MIC corresponds to CCOC(=O)c1c(N)nc2c(c1-c1ccc(Br)cc1)CCc1c-2[nH]c2ccc(C)cc12 on Staphylococcus aureus?
result: 25

====

Please go through the items and note down their zone of inhibition at 25 µg/mL.
Tested on: Enterococcus faecalis
Assay: Antibacterial activity against Enterococcus faecalis at 25 ug/ml after 24 hrs by agar disk diffusion assay
Assay type: functional
Conditions: read-out: DIZ
Numbers only, in mm.

The cases that follow already have their zone of inhibition at 25 µg/mL on record.
given.smiles	measurement.unit	zone of inhibition at 25 µg/mL
Cc1ccc2[nH]c3c(c2c1)CCc1c-3nc(N)c(C#N)c1-c1cccs1	mm	29
Cc1ccc2[nH]c3c(c2c1)CCc1c-3nc(N)c(C#N)c1-c1ccc(Br)cc1	mm	23
CCOC(=O)c1c(N)nc2c(c1-c1cc3ccccc3nc1Cl)CCc1c-2[nH]c2ccc(C)cc12	mm	24
CCOC(=O)c1c(N)nc2c(c1-c1ccc(Br)cc1)CCc1c-2[nH]c2ccc(C)cc12	mm	22
CCOC(=O)c1c(N)nc2c(c1-c1cccs1)CCc1c-2[nH]c2ccc(C)cc12	mm	28

Let's switch to this molecule now.
query: Suppose we examine the molecule Cc1ccc2[nH]c3c(c2c1)CCc1c-3nc(N)c(C#N)c1-c1cc2ccccc2nc1Cl ; what zone of inhibition at 25 µg/mL value has been reported?
result: 24

====

System: Enterococcus faecalis
Experiment: Antibacterial activity against Enterococcus faecalis at 50 ug/ml after 24 hrs by agar disk diffusion assay
Assay type: functional
Settings: read-out: DIZ
recorded.endpoint: zone of inhibition at 50 µg/mL
Number first, unit second.

The cases that follow already have their zone of inhibition at 50 µg/mL on record.
given.smiles	test.system	zone of inhibition at 50 µg/mL
CCOC(=O)c1c(N)nc2c(c1-c1cccnc1)CCc1c-2[nH]c2ccc(C)cc12	Enterococcus faecalis	17 mm
CCOC(=O)c1c(N)nc2c(c1-c1ccc(N(C)C)cc1)CCc1c-2[nH]c2ccc(C)cc12	Enterococcus faecalis	18 mm
Cc1ccc2[nH]c3c(c2c1)CCc1c-3nc(N)c(C#N)c1-c1ccc(N(C)C)cc1	Enterococcus faecalis	19 mm

query: Suppose we examine the molecule Cc1ccc2[nH]c3c(c2c1)CCc1c-3nc(N)c(C#N)c1-c1cccnc1 ; what zone of inhibition at 50 µg/mL value has been reported?
result: 20 mm
